Data provenance is PubChem BioAssay (NCI).

Test system: NCI-H23 lung
Assay: NCI tumour cell line growth inhibition, 48 h; in the data active = GI50 below about 0.43 µM; inactive = the rest
Parameter call: string, one of T (active), F (inactive)

Worked examples follow.
MOLECULE: Cn1ccnc1C(=O)/C=C/c1ccc(C(=O)Nc2c(F)c(F)c(F)c(F)c2F)cc1
ASSAYED SYSTEM: NCI-H23 lung
ASSIGNED CLASS: F
//
MOLECULE: COc1cc(N(CCC#N)CCC#N)ccc1/C(N=Nc1ccc(C(=O)O)cc1)=N/NC(=O)c1cc(Br)ccc1O
ASSAYED SYSTEM: NCI-H23 lung
ASSIGNED CLASS: F
//
MOLECULE: Nc1ncc(C2[C@H](CNC(=O)c3cc(Br)c[nH]3)C(CNC(=O)c3cc(Br)c[nH]3)[C@@H]2c2cnc(N)[nH]2)[nH]1 (stereo not given in full)
ASSAYED SYSTEM: NCI-H23 lung
ASSIGNED CLASS: F
//
MOLECULE: COc1ccc(/C(C)=C(\c2ccc(Cl)cc2)c2ccc(OCCN3CCCCCC3)cc2)cc1F
ASSAYED SYSTEM: NCI-H23 lung
ASSIGNED CLASS: F

input: // outcome(item) with item = "O=C(OC[C@@H]1CO1)c1cccc2c(=O)c3ccccc3[nH]c12"
output: T
